settings: in toluene, 318.15 K
value-kind: solubility (mole fraction)

INSERT INTO measurements (smiles_entry, value_kind, observed_result) VALUES
  ('Cc1c(C(=O)O)cc([N+](=O)[O-])cc1[N+](=O)[O-]', 'solubility (mole fraction)', 0.0434);

====

conditions: in ethanol, 333.15 K
value-kind: solubility (mole fraction)

INSERT INTO results (smiles_entry, observed_result) VALUES
  ('Cc1c(C(=O)O)cc([N+](=O)[O-])cc1[N+](=O)[O-]', 0.134);

====

details: in toluene, 308.15 K
value-kind: solubility (mole fraction)

INSERT INTO assay_data (smiles_entry, observed_result) VALUES
  ('Cc1c(C(=O)O)cc([N+](=O)[O-])cc1[N+](=O)[O-]', 0.0328);
